Biological target: 17-beta-hydroxysteroid dehydrogenase type 2 (Homo sapiens)
Assay: Inhibition of human microsomal 17beta-HSD2 using [2,4,6,7-3H]E2 as substrate at 1 uM after 20 mins by radioflow detector
Values of inhibition greater than or equal to 60% map to 1; values below map to 0.

Example cases with answers are listed next.
chemical string: Cc1cc(-c2cccc(C(=O)c3cc(O)cc(F)c3)n2)ccc1O
label: 0
--
chemical string: O=C(c1ccc(F)c(O)c1)c1ccc(-c2ccc(O)c(Cl)c2)cn1
label: 1
--
chemical string: O=C(c1ccc(-c2ccc(O)cc2Cl)cc1)c1cccc(O)c1
label: 1
--
chemical string: O=C(c1ccc(-c2ccc(O)c(F)c2)cc1)c1cccc(O)c1
label: 1
--
chemical string: Cc1cc(-c2ccc(C(=O)c3ccc(F)c(F)c3)cc2)ccc1O
label: 0

Inquiry: Record `Cc1cc(-c2ccc(C(=O)c3cc(O)cc(F)c3)cc2)ccc1O` ; criterion: inhibition no lower than 60%. Met?
Reply text: 1

Inquiry: Then what about the compound `Cc1cc(O)ccc1-c1cccc(C(=O)c2cccc(O)c2)n1` ?
Reply text: 0

Inquiry: And what about the compound `Cc1cc(-c2cccc(C(=O)c3ccc(C)c(O)c3)n2)ccc1O` ?
Reply text: 0

Inquiry: Consider next the compound `O=C(c1cccc(O)c1)c1cccc(-c2ccc(O)c(F)c2)n1` in the same way.
Reply text: 0

Inquiry: Subsequent entry: `Cc1cc(-c2ccc(C(=O)c3cccc(O)c3)nc2)ccc1O`
Reply text: 1

Inquiry: Please give the result for `Cc1cc(-c2cccc(C(=O)c3cccc(O)c3)n2)ccc1O` too.
Reply text: 1

Inquiry: Then this compound: `Cc1cc(-c2ccc(C(=O)c3cccc(O)c3)cn2)ccc1O`
Reply text: 1

Inquiry: Next record, please: `Cc1cc(-c2cccc(C(=O)c3cccc(O)c3)c2)ccc1O`
Reply text: 1

Inquiry: Field entry: `Cc1cc(-c2cccc(C(=O)c3ccc(F)c(O)c3)n2)ccc1O`
Reply text: 1

Inquiry: What about `O=C(c1cccc(O)c1)c1cccc(-c2cccc(O)c2)n1` ?
Reply text: 0

Inquiry: # repeat for `O=C(c1ccc(-c2ccc(O)c(Cl)c2)cc1)c1cccc(O)c1`
Reply text: 1

Inquiry: What would you report for `O=C(c1cccc(O)c1)c1cccc(-c2ccc(O)cc2)n1` ?
Reply text: 0

Inquiry: Okay, and `O=C(c1cccc(O)c1)c1cccc(-c2ccccc2O)n1` ?
Reply text: 0
